Tested on: 648629-189-R-J1-PDC spheroids with HUVEC/MSC, viability;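 also: spheroids exposed to agents for seven days before reading; percent of vehicle control luminescence where 100% = DMSO treated spheroids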
Test: Anticancer human tumor 648629-189-R-J1-PDC patient-derived bladder carcinoma cell line growth inhibition [PI3K]
Details: second compound 1 µM; first compound 0.00316 µM; stronger effect = lower value
READOUT LABEL: viability, T/C (%)
One number for each entry, in %.

The following compounds have reported results that may help.
CC(=O)c1c(C)c2cnc(Nc3ccc(N4CCNCC4)cn3)nc2n(C2CCCC2)c1=O + CC(Nc1ccc2c(c1)OCCn1cc(N3C(=O)OCC3C(F)F)nc1-2)C(N)=O	78.4
Cn1ncnc1[C@H]1c2n[nH]c(=O)c3cc(F)cc(c23)N[C@@H]1c1ccc(F)cc1 + COc1c(OCCCN2CCOCC2)ccc2c3n(c(=NC(=O)c4cnc(N)nc4)nc12)CCN3	3.49
CCN1CCN(Cc2ccc(Nc3ncc(F)c(-c4cc(F)c5nc(C)n(C(C)C)c5c4)n3)nc2)CC1 + COc1c(OCCCN2CCOCC2)ccc2c3n(c(=NC(=O)c4cnc(N)nc4)nc12)CCN3	3.05
Cn1ncnc1[C@H]1c2n[nH]c(=O)c3cc(F)cc(c23)N[C@@H]1c1ccc(F)cc1 + Cc1nc(NC(=O)N2CCCC2C(N)=O)sc1-c1ccnc(C(C)(C)C(F)(F)F)c1	70.6

Give viability, T/C for all compounds that follow.
1. CCN1CCN(Cc2ccc(Nc3ncc(F)c(-c4cc(F)c5nc(C)n(C(C)C)c5c4)n3)nc2)CC1 + Cc1nc(NC(=O)N2CCCC2C(N)=O)sc1-c1ccnc(C(C)(C)C(F)(F)F)c1
2. CC(=O)c1c(C)c2cnc(Nc3ccc(N4CCNCC4)cn3)nc2n(C2CCCC2)c1=O + COc1c(OCCCN2CCOCC2)ccc2c3n(c(=NC(=O)c4cnc(N)nc4)nc12)CCN3
3. CC(C)n1nc(-c2ccc3oc(N)nc3c2)c2c(N)ncnc21 + CC(Nc1ccc2c(c1)OCCn1cc(N3C(=O)OCC3C(F)F)nc1-2)C(N)=O
4. CCN1CCN(Cc2ccc(Nc3ncc(F)c(-c4cc(F)c5nc(C)n(C(C)C)c5c4)n3)nc2)CC1 + CC(Nc1ccc2c(c1)OCCn1cc(N3C(=O)OCC3C(F)F)nc1-2)C(N)=O
5. CC(C)n1nc(-c2ccc3oc(N)nc3c2)c2c(N)ncnc21 + CC(Nc1ncnc2nc[nH]c12)c1cc2cccc(Cl)c2c(=O)n1-c1ccccc1
6. CC(C)n1nc(-c2ccc3oc(N)nc3c2)c2c(N)ncnc21 + COc1c(OCCCN2CCOCC2)ccc2c3n(c(=NC(=O)c4cnc(N)nc4)nc12)CCN3

### Response
[78.2, 3.08, 67.2, 70.8, 101, 2.48]

Here are 6 compounds. What values of viability, T/C were reported for them?
1. CC(=O)c1c(C)c2cnc(Nc3ccc(N4CCNCC4)cn3)nc2n(C2CCCC2)c1=O + CC(Nc1ncnc2nc[nH]c12)c1cc2cccc(Cl)c2c(=O)n1-c1ccccc1
2. CC(=O)c1c(C)c2cnc(Nc3ccc(N4CCNCC4)cn3)nc2n(C2CCCC2)c1=O + Cc1nc(NC(=O)N2CCCC2C(N)=O)sc1-c1ccnc(C(C)(C)C(F)(F)F)c1
3. Cn1ncnc1[C@H]1c2n[nH]c(=O)c3cc(F)cc(c23)N[C@@H]1c1ccc(F)cc1 + CC(Nc1ncnc2nc[nH]c12)c1cc2cccc(Cl)c2c(=O)n1-c1ccccc1
4. CCN1CCN(Cc2ccc(Nc3ncc(F)c(-c4cc(F)c5nc(C)n(C(C)C)c5c4)n3)nc2)CC1 + CC(Nc1ncnc2nc[nH]c12)c1cc2cccc(Cl)c2c(=O)n1-c1ccccc1
5. CC(C)n1nc(-c2ccc3oc(N)nc3c2)c2c(N)ncnc21 + Cc1nc(NC(=O)N2CCCC2C(N)=O)sc1-c1ccnc(C(C)(C)C(F)(F)F)c1
6. Cn1ncnc1[C@H]1c2n[nH]c(=O)c3cc(F)cc(c23)N[C@@H]1c1ccc(F)cc1 + CC(Nc1ccc2c(c1)OCCn1cc(N3C(=O)OCC3C(F)F)nc1-2)C(N)=O

### Response
1. 109
2. 73.7
3. 97.8
4. 106
5. 74.2
6. 69.2
